Reference for the values: patent US20150094321A1

# Tested on: Colo201
# Assay info: Cell line proliferation study
# Format: cell-based, human
# Experimental conditions: Homo sapiens, COLO 201; Colo201, colon; 72 hours; read-out: gIC50
Metric: IC50 (nM)
Numbers only, in nM.

Ask: Find the recorded IC50 belonging to CC(=O)Nc1cccc(-n2c(=O)n(C3CC3)c(=O)c3c(Nc4ccc(I)cc4F)n(C)c(=O)c(C)c32)c1 and report it.
Reply: 4

---

# Tested on: BxPC3
# Assay info: Cell line proliferation study
# Format: cell-based, human
# Experimental conditions: Homo sapiens, BXPC-3; BxPC3, pancreas; 72 hours; read-out: gIC50
# Protocol: In a separate study, combination drug tests with Compounds A and B were conducted using a panel of cell lines from human colon cancers (n=26), lung cancers (n=15) and pancreatic cancers (n=6). Cell lines were obtained from commercial vendors (ATCC and DSMZ). […]
pIC50: −log10 of the molar value.
Metric: pIC50

                              smiles_record  reported_value
0  Cn1ncc(Cl)c1-c1cc(C(=O)N[C@H](CN)Cc2ccc(F)c(F)c2)oc1Cl          < 6.00

Next up:
Ask: Request: pIC50, test system BxPC3, entry CC(=O)Nc1cccc(-n2c(=O)n(C3CC3)c(=O)c3c(Nc4ccc(I)cc4F)n(C)c(=O)c(C)c32)c1
Reply: < 6.60

---

# System: NCIH747
# Assay info: Cell line proliferation study
# Type: cell-based, human
# Experimental conditions: Homo sapiens, NCI-H747; NCIH747, colon; 72 hours; read-out: gIC50
Metric: pIC50
Answers are plain numbers, as −log10 of the molar value.

Ask: Find the recorded pIC50 belonging to CC(=O)Nc1cccc(-n2c(=O)n(C3CC3)c(=O)c3c(Nc4ccc(I)cc4F)n(C)c(=O)c(C)c32)c1 and report it.
Reply: 8.27

---

# Tested on: NCIH520
# Assay info: Cell line proliferation study
# Assay type: cell-based, human
# Experimental conditions: Homo sapiens, NCI-H520; NCIH520, lung; 72 hours; read-out: gIC50
Hi there, I'd appreciate the recorded IC50 for every entry that follows.

Below is a list of molecules. For each, state its recorded IC50.
1. CC(=O)Nc1cccc(-n2c(=O)n(C3CC3)c(=O)c3c(Nc4ccc(I)cc4F)n(C)c(=O)c(C)c32)c1 [Compound A]
2. Cn1ncc(Cl)c1-c1cc(C(=O)N[C@H](CN)Cc2ccc(F)c(F)c2)oc1Cl [Compound B]

Reply:
> 250 nM
568 nM

---

# Tested on: SUM149PT
# Assay info: Cell growth inhibition assay
# Type: cell-based
# Experimental conditions: Homo sapiens, breast, PTEN low, single agent, read-out: IC50 Single Agent (mean +/- std)
Metric: IC50

Ask: Find the recorded IC50 belonging to Cn1ncc(Cl)c1-c1cc(C(=O)N[C@H](CN)Cc2ccc(F)c(F)c2)oc1Cl [Compound B] and report it.
Reply: > 1000 nM

---

# Tested on: Calu6
# Assay info: Cell line proliferation study
# Assay type: cell-based, human
# Experimental conditions: Homo sapiens, Calu-6; Calu6, lung; 72 hours; read-out: gIC50
Metric: IC50

                                   compound  metric  reported_value
0  Cn1ncc(Cl)c1-c1cc(C(=O)N[C@H](CN)Cc2ccc(F)c(F)c2)oc1Cl [Compound B]    IC50       > 1000 nM

Next up:
Ask: Find the recorded IC50 belonging to CC(=O)Nc1cccc(-n2c(=O)n(C3CC3)c(=O)c3c(Nc4ccc(I)cc4F)n(C)c(=O)c(C)c32)c1 [Compound A] and report it.
Reply: 53.1 nM

---

# Tested on: Colo205
# Assay info: Cell line proliferation study
# Type: cell-based, human
# Experimental conditions: Homo sapiens, COLO 205; Colo205, colon; 72 hours; read-out: gIC50
Metric: IC50 (nM)
Give bare numbers, in nM.

Ask: Find the recorded IC50 belonging to CC(=O)Nc1cccc(-n2c(=O)n(C3CC3)c(=O)c3c(Nc4ccc(I)cc4F)n(C)c(=O)c(C)c32)c1 [Compound A] and report it.
Reply: 0.77

---

# Test system: T84
# Assay info: Cell line proliferation study
# Assay type: cell-based, human
# Experimental conditions: Homo sapiens; T84, colon; 72 hours; read-out: gIC50
Hi there, I'd appreciate the recorded pIC50 for every entry that follows.
Numbers only, as −log10 of the molar value.

In [3]: df
Out[3]:
                                   compound  tested_system  reported_value
0  Cn1ncc(Cl)c1-c1cc(C(=O)N[C@H](CN)Cc2ccc(F)c(F)c2)oc1Cl [Compound B]            T84            6.37

Next up:
Ask: Find the recorded pIC50 belonging to CC(=O)Nc1cccc(-n2c(=O)n(C3CC3)c(=O)c3c(Nc4ccc(I)cc4F)n(C)c(=O)c(C)c32)c1 [Compound A] and report it.
Reply: 6.86
